# TARGET_OR_TEST_SYSTEM: UniProt P22518
# Sequence (P22518 whole entry, looked up): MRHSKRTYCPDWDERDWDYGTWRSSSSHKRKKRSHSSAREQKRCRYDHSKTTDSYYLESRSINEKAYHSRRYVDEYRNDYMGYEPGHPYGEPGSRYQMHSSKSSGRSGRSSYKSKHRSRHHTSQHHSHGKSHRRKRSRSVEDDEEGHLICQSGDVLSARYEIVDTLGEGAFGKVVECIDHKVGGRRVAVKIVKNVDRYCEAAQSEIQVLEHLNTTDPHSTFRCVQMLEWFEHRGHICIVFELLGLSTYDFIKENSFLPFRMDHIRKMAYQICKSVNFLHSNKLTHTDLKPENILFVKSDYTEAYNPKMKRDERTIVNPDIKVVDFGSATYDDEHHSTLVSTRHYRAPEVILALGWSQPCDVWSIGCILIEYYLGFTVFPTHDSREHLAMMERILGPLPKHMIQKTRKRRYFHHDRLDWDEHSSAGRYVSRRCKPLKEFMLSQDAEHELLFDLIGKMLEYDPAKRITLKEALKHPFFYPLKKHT
# ASSAY_DETAILS: Inhibition of recombinant mouse CLK1 expressed in bacteria assessed as enzyme residual activity using GRSRSRSRSRSR as substrate at 1 uM incubated for 30 mins in presence of ATP by ADP-Glo kinase assay

- STRUCTURE_SMILES_STRING: "CCN(CC)Cc1c[nH]c2cc3cnccc3cc12"
  UNIT_TAG: "%"
  Activity: 89
- STRUCTURE_SMILES_STRING: "Cn1ccc2cc3ccncc3cc21"
  UNIT_TAG: "%"
  Activity: 92
- STRUCTURE_SMILES_STRING: "CN(C)Cc1c[nH]c2cc3cnccc3cc12"
  UNIT_TAG: "%"
  Activity: 91
